# experimental.details: Hemolysis assay
# Type: cell-based
# conditions: peptide concentration at 10% hemolysis / IC50 in HeLa cells; read-out: Selectivity index
Non-standard residues stand in square brackets, D forms with d. Residues, ends and D or L forms follow the SMILES beside them. 2Abz = Nc1ccccc1C(=O)O
assay.readout: selectivity ratio at 2 h
# print the numeric value only

Input line: Could you share which selectivity ratio at 2 h value was measured for N=C(N)NCCC[C@H](NC(=O)[C@H](Cc1c[nH]c2ccccc12)NC(=O)[C@H](CCC(N)=O)NC(=O)[C@H](Cc1c[nH]c2ccccc12)NC(=O)[C@H](CCCNC(=N)N)NC(=O)[C@H](Cc1c[nH]c2ccccc12)NC(=O)[C@H](CCC(N)=O)NC(=O)[C@H](Cc1c[nH]c2ccccc12)NC(=O)[C@H](CCCNC(=N)N)NC(=O)c1ccccc1N)C(N)=O [Abz-1, (2-Abz)-RWQWRWQWR] (H-[2Abz]RWQWRWQWR-NH2) ?
Output line: 0.7

Source of measurements: paper PMC12383145
